The reported numbers originate from BigSolDB 2.1.

experimental.setup: in 2-butanone, 303.15 K
parameter.measured: solubility (mole fraction)
Lab note: write the figure by itself, no unit.

Give a short answer stating reported solubility (mole fraction) for `CCOc1ccc(OCC)cc1` . 0.204

====

experimental.setup: in ethanol, 308.15 K
parameter.measured: solubility (mole fraction)

Give a short answer stating reported solubility (mole fraction) for `CCOc1ccc(OCC)cc1` . 0.0234

====

experimental.setup: in methyl acetate, 298.15 K
parameter.measured: solubility (mole fraction)
Lab note: write the figure by itself, no unit.

Give a short answer stating reported solubility (mole fraction) for `CCOc1ccc(OCC)cc1` . 0.145

====

experimental.setup: in acetonitrile, 313.15 K
parameter.measured: solubility (mole fraction)
Lab note: write the figure by itself, no unit.

Give a short answer stating reported solubility (mole fraction) for `CCOc1ccc(OCC)cc1` . 0.251
